The origin of these recorded values is patent US20240132518A1.

assay_explanation: Pharmacokinetic study in ICR mice
Type: in vivo
protocol_conditions: both sexes, mouse, sc, 10 mg/kg subcutaneous injection, plasma

| smiles_representation | AUC(0-inf) |
| --- | --- |
| CC(C)(O/N=C(\C(=O)N[C@@H]1C(=O)N2C(C(=O)[O-])=C(C[N+]3(CCCN(CCCNC(=O)c4ccc(O)c(O)c4Cl)C(=O)c4ccc(O)c(O)c4Cl)CCCC3)CS[C@H]12)c1csc(N)n1)C(=O)O | 110 µg·h/mL |

###

assay_explanation: Pharmacokinetic study in ICR mice
Format: in vivo
protocol_conditions: both sexes, mouse, sc, 10 mg/kg subcutaneous injection, plasma

| smiles_representation | Tmax [min] |
| --- | --- |
| CC(C)(O/N=C(\C(=O)N[C@@H]1C(=O)N2C(C(=O)[O-])=C(C[N+]3(CCCN(CCCNC(=O)c4ccc(O)c(O)c4Cl)C(=O)c4ccc(O)c(O)c4Cl)CCCC3)CS[C@H]12)c1csc(N)n1)C(=O)O | 15 |

###

Property: clearance; scope: individual compounds
assay_explanation: Pharmacokinetic study in cynomolgus monkeys
Assay type: in vivo
protocol_conditions: both sexes, cynomolgus, cynomolgus monkey, plasma, iv, 10 mg/kg, 10 mg/kg single intravenous infusion, individual animals

| smiles_representation | clearance, mL/min/kg |
| --- | --- |
| CC(C)(O/N=C(\C(=O)N[C@@H]1C(=O)N2C(C(=O)[O-])=C(C[N+]3(CCCN(CCCNC(=O)c4ccc(O)c(O)c4Cl)C(=O)c4ccc(O)c(O)c4Cl)CCCC3)CS[C@H]12)c1csc(N)n1)C(=O)O | 1 |
| CC(C)(O/N=C(\C(=O)N[C@@H]1C(=O)N2C(C(=O)[O-])=C(C[N+]3(CCN(CCCNC(=O)c4ccc(O)c(O)c4Cl)C(=O)c4ccc(O)c(O)c4Cl)CCCC3)CS[C@H]12)c1csc(N)n1)C(=O)O | 5.06 |

###

Readings of AUC(0-inf) for the listed compounds
assay_explanation: Pharmacokinetic study in ICR mice
Type: in vivo
protocol_conditions: both sexes, mouse, sc, 100 mg/kg subcutaneous injection, plasma
Protocol: The formulation for administration was prepared on ice. A proper amount of the test compound was precisely weighed out, and a 90% volume of normal saline was slowly added. The mixture was ultrasonically stirred in an ice-water bath until no large pieces existed. After the mixture was well mixed, a 1 M NaOH solution was added in small portions using a pipette. • Species and strain: ICR mice • Animal grade: SPF • Animal source: Medicilon: 999M-018 […]

| compound | units | AUC(0-inf) |
| --- | --- | --- |
| CC(C)(O/N=C(\C(=O)N[C@@H]1C(=O)N2C(C(=O)[O-])=C(C[N+]3(CCCN(CCCNC(=O)c4ccc(O)c(O)c4Cl)C(=O)c4ccc(O)c(O)c4Cl)CCCC3)CS[C@H]12)c1csc(N)n1)C(=O)O | µg·h/mL | 1100 |
| CC(C)(O/N=C(\C(=O)N[C@@H]1C(=O)N2C(C(=O)[O-])=C(C[N+]3(CCNC(=O)c4ccc(O)c(O)c4Cl)CCCC3)CS[C@H]12)c1csc(N)n1)C(=O)O [Cefiderocol, reference compound] | µg·h/mL | 261 |

###

In this section we review reported Cmax values for a set of compounds.
assay_explanation: Pharmacokinetic study in cynomolgus monkeys
Type: in vivo
protocol_conditions: both sexes, cynomolgus, cynomolgus monkey, plasma, iv, 10 mg/kg, 10 mg/kg single intravenous infusion, individual animals, read-out: Cmax

| smiles_representation | units | Cmax |
| --- | --- | --- |
| CC(C)(O/N=C(\C(=O)N[C@@H]1C(=O)N2C(C(=O)[O-])=C(C[N+]3(CCN(CCCNC(=O)c4ccc(O)c(O)c4Cl)C(=O)c4ccc(O)c(O)c4Cl)CCCC3)CS[C@H]12)c1csc(N)n1)C(=O)O | ng/mL | 35500 |
| CC(C)(O/N=C(\C(=O)N[C@@H]1C(=O)N2C(C(=O)[O-])=C(C[N+]3(CCCN(CCCNC(=O)c4ccc(O)c(O)c4Cl)C(=O)c4ccc(O)c(O)c4Cl)CCCC3)CS[C@H]12)c1csc(N)n1)C(=O)O | ng/mL | 55200 |
